Recorded Ki values for a group of compounds are listed next.
TARGET UNDER TEST: human full-length glucocorticoid receptor (Homo sapiens, UniProt P04150)
Sequence (P04150 whole entry): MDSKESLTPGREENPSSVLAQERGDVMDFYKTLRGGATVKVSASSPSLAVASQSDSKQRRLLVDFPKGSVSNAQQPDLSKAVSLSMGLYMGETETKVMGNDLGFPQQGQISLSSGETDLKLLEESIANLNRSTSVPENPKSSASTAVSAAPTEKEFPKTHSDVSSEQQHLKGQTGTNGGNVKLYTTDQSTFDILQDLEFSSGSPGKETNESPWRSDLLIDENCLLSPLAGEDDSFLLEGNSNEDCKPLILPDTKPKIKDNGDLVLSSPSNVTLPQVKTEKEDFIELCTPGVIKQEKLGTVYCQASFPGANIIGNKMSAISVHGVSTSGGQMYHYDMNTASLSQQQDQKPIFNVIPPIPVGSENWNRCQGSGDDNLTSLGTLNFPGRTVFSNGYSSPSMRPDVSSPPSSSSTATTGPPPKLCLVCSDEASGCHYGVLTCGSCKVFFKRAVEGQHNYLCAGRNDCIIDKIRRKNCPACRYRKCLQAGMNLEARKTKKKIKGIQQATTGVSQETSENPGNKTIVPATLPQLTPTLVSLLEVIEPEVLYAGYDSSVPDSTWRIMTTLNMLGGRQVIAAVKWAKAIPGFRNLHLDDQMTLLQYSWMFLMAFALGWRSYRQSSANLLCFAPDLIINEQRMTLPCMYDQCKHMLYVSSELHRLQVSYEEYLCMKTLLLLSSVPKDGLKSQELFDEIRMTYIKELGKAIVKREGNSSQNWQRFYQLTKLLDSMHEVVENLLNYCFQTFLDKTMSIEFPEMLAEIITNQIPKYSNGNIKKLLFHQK
MEASUREMENT NOTES: Glucocorticoid Receptor Binding Assay (I), fluorescence polarization, Fluormone GS Red
Parameters: purified human recombinant full-length glucocorticoid receptor; purchased Invitrogen Part #2893
EXPERIMENTAL CONDITIONS: GR Binding Assay (I); read-out: GR (Ki, nM) (GR Binding Assay (I))
The reply should contain only the number, in nM.

Examples with answers:
INSERT INTO measurements (compound, measured) VALUES
  ('CN(Cc1ccccc1)C(=O)c1ccc(-c2ccc3c(n2)Oc2ccccc2[C@@H]3C(C)(C)C(=O)Nc2nncs2)cc1', 16.1),
  ('CC(C)(C(=O)Nc1nncs1)[C@H]1c2ccccc2Oc2nc(-c3ccc4c(c3)CCC4=O)ccc21', 5.57),
  ('CN(C)C(=O)CN(C)C(=O)c1ccc(-c2ccc3c(n2)Oc2ccccc2[C@@H]3C(C)(C)C(=O)Nc2nncs2)cc1', 110),
  ('CC(=O)c1ccc2c(n1)Oc1ccccc1[C@@H]2C(C)(C)C(=O)Nc1nncs1', 40.9),
  ('CC1CN(C(=O)c2ccc(-c3ccc4c(n3)Oc3ccccc3[C@@H]4C(C)(C)C(=O)Nc3nncs3)cc2)CC(C)O1 (stereo partly drawn)', 19.9);

Prompt line: Identify measured Ki associated with CCCCCCc1ccc2c(n1)Oc1ccccc1[C@@H]2C(C)(C)C(=O)Nc1nncs1
Response line: 11.1

Prompt line: Give Ki for the following compound: CC(C)(C(=O)Nc1nncs1)[C@H]1c2ccccc2Oc2nc(-c3ccc(C(=O)NCCCO)cc3)ccc21
Response line: 30.1

Prompt line: Give the reported value of Ki for this record: CC(C)(C(=O)Nc1nncs1)C1c2ccccc2Oc2cc(-c3ncc(C(=O)O)cn3)ccc21 (stereo not drawn)
Response line: 13.6

====

Reported Ki values are given for each entry in this list.
TARGET UNDER TEST: human full-length glucocorticoid receptor (Homo sapiens, UniProt P04150)
MEASUREMENT NOTES: Glucocorticoid Receptor Binding Assay (I), fluorescence polarization, Fluormone GS Red
Parameters: purified human recombinant full-length glucocorticoid receptor; purchased Invitrogen Part #2893
EXPERIMENTAL CONDITIONS: GR Binding Assay (I); read-out: GR (Ki, nM) (GR Binding Assay (I))
The response must be a number in nM with no trailing unit.

INSERT INTO results (molecule, measurement_kind, measured) VALUES
  ('CN(C)C(=O)c1ccc(-c2ccc3c(n2)Oc2ccccc2C3C2(C(=O)Nc3nncs3)CC2)cc1 (stereo not shown)', 'Ki', 144),
  ('CCCN(C)C(=O)c1ccc(-c2ccc3c(n2)Oc2ccccc2[C@@H]3C(C)(C)C(=O)Nc2nncs2)cc1Cl', 'Ki', 3.04);

Let's switch to this molecule now.
Prompt line: Look up and report measured Ki for this entry: CC(C)(C(=O)Nc1nncs1)[C@H]1c2ccccc2Oc2nc(-c3ccc4ccccc4c3)ccc21
Response line: 386

====

TARGET UNDER TEST: human full-length glucocorticoid receptor (Homo sapiens, UniProt P04150)
MEASUREMENT NOTES: Glucocorticoid Receptor Binding Assay (II), fluorescence polarization, FITC-dexamethasone
Parameters: recombinantly expressed human full-length glucocorticoid receptor; purchased PanVera Co., Madison P2816
EXPERIMENTAL CONDITIONS: GR Binding Assay (II); read-out: GR (Ki, nM) (GR Binding Assay (II))
So basically: is Ki under 80 nM? Then 1. Not under? Then 0.

INSERT INTO measurements (molecule, target_under_test, cat) VALUES
  ('CC(C)(C(=O)Nc1nncs1)C1c2ccccc2Oc2nc(Cl)ccc21 (stereo not drawn)', 'human full-length glucocorticoid receptor (Homo sapiens, UniProt P04150)', 1),
  ('CCOC(=O)c1csc(NC(=O)C(C)(C)C2c3ccccc3CCc3ccccc32)n1', 'human full-length glucocorticoid receptor (Homo sapiens, UniProt P04150)', 0),
  ('CC(C)(C(=O)Nc1nncs1)[C@@H]1c2ccccc2Oc2nc(N3CCCCC3)ccc21', 'human full-length glucocorticoid receptor (Homo sapiens, UniProt P04150)', 0),
  ('CC(C)(C(=O)Nc1nncs1)[C@H]1c2ccccc2Oc2nc(-c3ccc4ccccc4c3)ccc21', 'human full-length glucocorticoid receptor (Homo sapiens, UniProt P04150)', 0),
  ('CC(C)(C(=O)Nc1nncs1)[C@H]1c2ccccc2Oc2nc(-c3ccc(Cl)cc3)ccc21', 'human full-length glucocorticoid receptor (Homo sapiens, UniProt P04150)', 1);

In the following, a different molecule is considered.
Prompt line: Bench note: check whether COC(=O)c1ccc(-c2ccc3c(n2)Oc2ccccc2[C@@H]3C(C)(C)C(=O)Nc2nncs2)cc1 shows Ki below 80 nM
Response line: 1
